- System: Escherichia coli TOP10;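 further: peptides expressed intracellularly from a pBAD plasmid library in pooled LB shake-flask culture, induced with 0.3% L-arabinose, DNA abundance read by NGS, three biological replicates, DESeq2 with apeglm shrinkage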
- assay.overview: shrunken log2 fold change of peptide-encoding DNA abundance (4.5 h post-induction vs induction); higher = less antimicrobial activity (less host growth inhibition)
- recorded.conditions: time post-induction: 4.5 h; library: site-saturation at positions 5, 18, 19, 20
measured.parameter: shrunken log2 fold change
Respond with the number and no other words.

INSERT INTO measurements (sequence_data, target_under_test, measured_parameter, recorded_number) VALUES
  ('RRIRYRPPRLPRPRPRPKALPRP', 'Escherichia coli TOP10', 'shrunken log2 fold change', 0.178),
  ('RRIRVRPPRLPRPRPRPQGKPRP', 'Escherichia coli TOP10', 'shrunken log2 fold change', 0.00549),
  ('RRIRERPPRLPRPRPRPKHAPRP', 'Escherichia coli TOP10', 'shrunken log2 fold change', -0.0907);

Log: Escherichia coli TOP10, sequence `RRIRHRPPRLPRPRPRPNKEPRP` , shrunken log2 fold change = 0.000399

Log: Escherichia coli TOP10, sequence `RRIRRRPPRLPRPRPRPCGEPRP` , shrunken log2 fold change = 0.0238

Log: Escherichia coli TOP10, sequence `RRIRPRPPRLPRPRPRPAVVPRP` , shrunken log2 fold change = 0.197

Log: Escherichia coli TOP10, sequence `RRIRNRPPRLPRPRPRPNEYPRP` , shrunken log2 fold change = -0.312

Log: Escherichia coli TOP10, sequence `RRIRSRPPRLPRPRPRPTKQPRP` , shrunken log2 fold change = 0.129

Log: Escherichia coli TOP10, sequence `RRIRWRPPRLPRPRPRPKIIPRP` , shrunken log2 fold change = -0.0886

Log: Escherichia coli TOP10, sequence `RRIRSRPPRLPRPRPRPHIIPRP` , shrunken log2 fold change = -0.443

Log: Escherichia coli TOP10, sequence `RRIRDRPPRLPRPRPRPTTGPRP` , shrunken log2 fold change = 0.673

Log: Escherichia coli TOP10, sequence `RRIRIRPPRLPRPRPRPKVWPRP` , shrunken log2 fold change = -0.0123

Log: Escherichia coli TOP10, sequence `RRIRCRPPRLPRPRPRPSKHPRP` , shrunken log2 fold change = -0.553

Log: Escherichia coli TOP10, sequence `RRIRRRPPRLPRPRPRPCLQPRP` , shrunken log2 fold change = -0.0554

Log: Escherichia coli TOP10, sequence `RRIRTRPPRLPRPRPRPTAKPRP` , shrunken log2 fold change = -0.143
